Provide the reported log10 of IC50 of each item.
Test system: breast line MDA468
Assay remarks: In vitro cell culture growth assay (MTS), MDA468
Format: cell-based, human
Condition description: Homo sapiens, 72 h, MDA468 cells, three days after drug treatment
Lab note - IC50 converted to log10 from values in nM.

Consider the following illustrative entries.
O=C(Cc1ccccc1)N1CCC(n2ncc3c(N4CCOCC4)nc(-c4ccc5[nH]ccc5c4)nc32)CC1 [Compound 492] : 3.48
O=C(NCCF)Nc1ccc(-c2nc(N3CCOCC3)c3cnn(C4CCN(C(=O)c5cccnc5)CC4)c3n2)c(F)c1 : 3.08
Nc1ccc(-c2nc(N3CCOCC3)c3cnn(C4CCN(Cc5ccccc5)CC4)c3n2)cc1 : 4.00
CNCCNC(=O)Nc1ccc(-c2nc(N3CCOCC3)c3cnn(C4CCN(Cc5cccnc5)CC4)c3n2)cc1 [Example 342] : 3.04
CCCOC(=O)N1CCC(n2ncc3c(N4CCOCC4)nc(-c4ccc(NC(=O)NCCO)cc4)nc32)CC1 : 2.52

Report log10 of IC50 for every entry below.
1. Nc1ccc(-c2nc(N3CCOCC3)c3cnn(-c4ccccc4)c3n2)cc1
2. NC(=O)CN1CCC(n2ncc3c(N4CCOCC4)nc(-c4ccc5[nH]ccc5c4)nc32)CC1 [Compound 495]

4.04
3.45

###

Assayed system: UniProtKB P42336
Assay remarks: Fluorescence polarization assay for PI3K
Type: biochemical
Condition description: PI3Kα IC50, PI3Kα
Measured property: pIC50
Numbers only, as −log10 of the molar value.

Consider the following illustrative entries.
CNC(=O)Nc1ccc(-c2nc(N3CCOCC3)c3cnn(C4CCN(C(=O)Oc5ccccc5)CC4)c3n2)cc1 [Compound 755] : 7.80
CNC(=O)Oc1ccc(-c2nc(N3CCOCC3)c3cnn(C4CCN(C(=O)OC)CC4)c3n2)cc1 [Compound 946] : 4.89

Would you kindly look at the next entry?
Need pIC50, item COC(=O)N1CCC(n2ncc3c(N4CCOCC4)nc(-c4ccc(NC(=O)Oc5ccc(Cl)cc5)cc4)nc32)CC1 [Compound 950] 5.05

###

System: breast line MDA468
Assay remarks: In vitro cell culture growth assay (MTS), MDA468
Assay type: cell-based, human
Condition description: Homo sapiens, 72 h, MDA468 cells, three days after drug treatment
Provide the reported IC50 of each item.
One number for each entry, in µM.

Report IC50 for every entry below.
1. CNC(=O)Nc1ccc(-c2nc(N3CCOCC3)c3cnn(C4CCN(C(=O)c5ccccc5OC)CC4)c3n2)cc1 [Compound 611]
2. CNC(=O)Nc1ccc(-c2nc(N3CCOCC3)c3cnn(C4CCN(C(=O)c5cccc(Cl)c5)CC4)c3n2)cc1 [Example 358]
3. Clc1ncccc1CN1CCC(n2ncc3c(N4CCOCC4)nc(-c4ccc5[nH]ccc5c4)nc32)CC1 [Compound 175]
4. c1cc2cc(-c3nc(N4CCOCC4)c4cnn(C5CCC6(CC5)OCCO6)c4n3)ccc2[nH]1 [Compound 142]

0.33
0.1
2
2.2

###

System: breast line MDA468
Assay remarks: In vitro cell culture growth assay (MTS), MDA468
Assay type: cell-based, human
Condition description: Homo sapiens, 72 h, MDA468 cells, three days after drug treatment
Measured property: IC50
Don't forget the unit after the number, please.

CNC(=O)Nc1ccc(-c2nc(N3CCOCC3)c3cnn(C4CCS(=O)(=O)CC4)c3n2)cc1 [Compound 869] : 590 nM
O=C(Nc1ccc(-c2nc(N3CCOCC3)c3cnn(C4CCN(C(=O)c5cccnc5)CC4)c3n2)cc1)Nc1ccccn1 [Compound 592] : 700 nM
CNC(=O)Nc1ccc(-c2nc(N3CCOCC3)c3cnn(C4CCN(C(=O)c5cccc(F)c5)CC4)c3n2)cc1 [Compound 603] : 80 nM

Would you kindly look at the next entry?
Need IC50, item c1ccc(CN2CCC(n3ncc4c(N5CCOCC5)nc(-c5ccc6nonc6c5)nc43)CC2)cc1 [Compound 190] 6000 nM

###

Assayed system: PI3K (Homo sapiens)
Assay remarks: Fluorescence polarization assay for PI3K
Type: biochemical
Condition description: PI3Kα; read-out: PI3Kα IC50
Measured property: IC50 (µM)
Numbers only, in µM.

Consider the following illustrative entries.
N#CN=C(N)Nc1ccc(-c2nc(N3CCOCC3)c3cnn(C4CCN(C(=O)c5cccnc5)CC4)c3n2)cc1 [Compound 655] : 0.344
CNC(=O)Nc1ccc(-c2nc(N3CCOCC3)c3cnn(C4CCN(Cc5ccc(Br)nc5)CC4)c3n2)cc1 [Example 389] : 0.031
CNC(=O)Nc1ccc(-c2nc(N3CCOCC3)c3cnn(C4CCN(Cc5ccc(OC)c(O)c5)CC4)c3n2)cc1 [Example 398] : 0.057
CCNC(=O)Nc1ccc(-c2nc(N3CCOCC3)c3cnn(C4CCN(Cc5ccccc5)CC4)c3n2)cc1F [Compound 596] : 0.485
COC(=O)N1CCC(n2ncc3c(N4CCOCC4)nc(-c4ccc(NC(=O)OCCN5CCCC5)cc4)nc32)CC1 [Compound 905] : 0.25
CNC(=O)Nc1ccc(-c2nc(N3CCOCC3)c3cnn(C4CCN(Cc5ccccn5)CC4)c3n2)cc1 [Example 331] : 0.065

Would you kindly look at the next entry?
Need IC50, item CNC(=O)Nc1ccc(-c2nc(N3CCOCC3)c3cnn(C4CCN(C(=O)OCCBr)CC4)c3n2)cc1 [Compound 804] 0.14

###

Provide the reported IC50 of each item.
Assayed system: PI3K (Homo sapiens, UniProt P42336)
Sequence (P42336 whole entry): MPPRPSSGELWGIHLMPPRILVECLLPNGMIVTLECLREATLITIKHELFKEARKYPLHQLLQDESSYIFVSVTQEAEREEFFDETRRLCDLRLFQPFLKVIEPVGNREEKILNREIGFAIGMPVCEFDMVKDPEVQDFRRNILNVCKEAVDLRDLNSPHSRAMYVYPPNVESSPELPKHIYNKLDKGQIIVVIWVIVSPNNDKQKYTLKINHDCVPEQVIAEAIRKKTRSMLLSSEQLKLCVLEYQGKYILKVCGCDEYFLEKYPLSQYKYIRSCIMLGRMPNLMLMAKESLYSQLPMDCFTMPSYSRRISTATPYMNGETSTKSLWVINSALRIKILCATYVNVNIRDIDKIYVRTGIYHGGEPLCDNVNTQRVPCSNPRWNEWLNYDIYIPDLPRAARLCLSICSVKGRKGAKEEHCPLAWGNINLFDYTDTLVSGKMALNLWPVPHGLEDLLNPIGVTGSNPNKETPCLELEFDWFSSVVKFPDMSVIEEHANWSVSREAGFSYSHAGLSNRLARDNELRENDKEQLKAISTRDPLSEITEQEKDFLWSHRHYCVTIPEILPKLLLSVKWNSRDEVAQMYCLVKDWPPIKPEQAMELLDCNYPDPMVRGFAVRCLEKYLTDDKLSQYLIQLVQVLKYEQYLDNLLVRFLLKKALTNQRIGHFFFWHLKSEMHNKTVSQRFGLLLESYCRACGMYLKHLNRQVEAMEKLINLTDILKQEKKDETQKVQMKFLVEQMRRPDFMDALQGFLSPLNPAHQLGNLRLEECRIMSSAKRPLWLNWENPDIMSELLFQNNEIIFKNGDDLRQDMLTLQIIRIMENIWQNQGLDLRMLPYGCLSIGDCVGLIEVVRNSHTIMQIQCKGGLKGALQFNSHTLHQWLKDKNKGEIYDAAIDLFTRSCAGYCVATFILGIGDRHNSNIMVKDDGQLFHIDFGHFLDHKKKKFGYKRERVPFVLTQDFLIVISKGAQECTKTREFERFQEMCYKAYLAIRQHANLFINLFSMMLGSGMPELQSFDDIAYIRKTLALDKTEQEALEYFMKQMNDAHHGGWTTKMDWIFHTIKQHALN
Sequence (P27986 whole entry partner): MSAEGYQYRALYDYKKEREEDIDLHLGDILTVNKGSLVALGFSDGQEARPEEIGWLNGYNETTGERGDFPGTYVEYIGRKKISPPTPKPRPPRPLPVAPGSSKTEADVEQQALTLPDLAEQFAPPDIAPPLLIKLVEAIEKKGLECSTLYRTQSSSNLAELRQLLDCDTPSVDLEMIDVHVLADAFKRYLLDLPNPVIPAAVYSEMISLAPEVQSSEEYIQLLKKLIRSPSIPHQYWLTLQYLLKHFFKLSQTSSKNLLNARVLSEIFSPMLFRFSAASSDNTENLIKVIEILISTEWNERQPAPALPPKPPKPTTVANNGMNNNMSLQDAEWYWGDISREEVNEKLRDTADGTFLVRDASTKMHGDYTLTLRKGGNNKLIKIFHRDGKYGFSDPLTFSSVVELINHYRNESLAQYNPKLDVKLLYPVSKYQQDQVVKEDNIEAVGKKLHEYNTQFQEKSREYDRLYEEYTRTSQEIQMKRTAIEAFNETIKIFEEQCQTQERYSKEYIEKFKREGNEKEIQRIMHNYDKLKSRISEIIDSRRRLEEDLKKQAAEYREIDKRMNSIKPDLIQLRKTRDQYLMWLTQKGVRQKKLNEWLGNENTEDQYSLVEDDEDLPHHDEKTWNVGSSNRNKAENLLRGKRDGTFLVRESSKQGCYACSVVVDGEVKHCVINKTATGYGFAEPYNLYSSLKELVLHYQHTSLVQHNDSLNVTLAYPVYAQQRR
Assay remarks: Fluorescence polarization assay for PI3K
Type: biochemical
Condition description: PI3Kα; read-out: PI3Kα IC50
Numbers only, in nM.

Report IC50 for every entry below.
1. CNC(=O)Nc1ccc(-c2nc(N3CCOCC3)c3cnn(C4CCC(=O)CC4)c3n2)cc1 [Compound 567]
2. CNC(=NC#N)Nc1ccc(-c2nc(N3CCOCC3)c3cnn(C4CCN(C(=O)c5cccnc5)CC4)c3n2)cc1 [Compound 656]
3. CNC(=O)Nc1ccc(-c2nc(N3CCOCC3)c3cnn(C4CCN(C(=O)c5cccnc5C)CC4)c3n2)cc1 [Compound 573]
4. CNCCNC(=O)Nc1ccc(-c2nc(N3CCOCC3)c3cnn(C4CCN(C(=O)c5cccnc5)CC4)c3n2)cc1 [Compound 593]
5. O=C(Nc1ccc(-c2nc(N3CCOCC3)c3cnn(C4CCN(CC(F)(F)F)CC4)c3n2)cc1)Nc1ccccn1
6. CN(C)c1ccc(CC(=O)Nc2ccc(-c3nc(N4CCOCC4)c4cnn(C5CCCCO5)c4n3)cc2)cc1 (stereo not shown) [Compound 522]
7. CCNC(=O)Nc1ccc(-c2nc(N3CCOCC3)c3cnn(C4CCN(C(=O)c5ccccc5)CC4)c3n2)cc1 [Example 381]

1: 56; 2: 382; 3: 216; 4: 45; 5: 890; 6: 6470; 7: 355

###

Assayed system: PI3K (Homo sapiens, UniProt P42336)
Assay remarks: Fluorescence polarization assay for PI3K
Assay type: biochemical
Condition description: PI3Kα; read-out: PI3Kα IC50
pIC50: −log10 of the molar value.
pIC50 vs 7: at or above is Met, below is Not met.

NCCNC(=O)Nc1ccc(-c2nc(N3CCOCC3)c3cnn(C4CCN(Cc5ccccc5)CC4)c3n2)cc1 [Compound 512] : Met
CNC(=O)Nc1ccc(-c2nc(N3CCOCC3)c3cnn(C4CCN(Cc5ccc(OC)nc5)CC4)c3n2)cc1 [Example 330] : Met
COC(=O)Nc1ccc(-c2nc(N3CCOCC3)c3cnn(C4CCN(C(=O)c5ccccc5)CC4)c3n2)cc1 [Example 442] : Not met
COC(=O)Nc1ccc(-c2nc(N3CCOCC3)c3cnn(C4CCN(CCCCO)CC4)c3n2)cc1 : Not met
CNC(=O)Nc1cc(F)c(-c2nc(N3CCOCC3)c3cnn(C4CCN(C(=O)c5cccnc5)CC4)c3n2)cc1F : Not met

Is pIC50 at least 7? Consider `CCNC(=O)Nc1ccc(-c2nc(N3CCOCC3)c3cnn(C4CCNCC4)c3n2)cc1` Not met

###

Assayed system: PI3K (Homo sapiens, UniProt P42336)
Assay remarks: Fluorescence polarization assay for PI3K;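 further: PI3K kinase reaction on PIP2 with ATP, 30-60 min, product sensed by GST-GRP with red probe in fluorescence polarization (mP), controls without enzyme and at zero time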
Format: biochemical
Condition description: PI3Kα; read-out: PI3Kα IC50
Measured property: IC50

CCOC(=O)N1CCC(n2ncc3c(N4CCOCC4)nc(-c4ccc(Nc5ncc[nH]5)cc4)nc32)CC1 : 168 nM

Report IC50 for every entry below.
1. CC(C)(C)OC(=O)N1CCC(n2ncc3c(N4CCOCC4)nc(-c4ccc(NC(=O)Nc5ccc(F)nc5)cc4)nc32)CC1
2. O=C(NCCc1ccccc1)Nc1ccc(-c2nc(N3CCOCC3)c3cnn(C4CCN(Cc5ccccc5)CC4)c3n2)cc1 [Compound 505]

1. 130 nM
2. 2140 nM

###

Assayed system: PI3K (Homo sapiens)
Assay remarks: Fluorescence polarization assay for PI3K
Type: biochemical
Condition description: PI3Kα; read-out: PI3Kα IC50
pIC50: −log10 of the molar value.
pIC50 vs 6: at or above is Condition met, below is Condition not met.

O=C1CCCN1CCn1ncc2c(N3CCOCC3)nc(-c3ccc4[nH]ccc4c3)nc21 [Compound 161] : Condition not met
CNC(=O)Nc1ccc(-c2nc(N3CCOCC3)c3cnn(C4CCN(C(=O)c5ccccn5)CC4)c3n2)cc1 [Compound 662] : Condition met
CNC(=O)Nc1ccc(-c2nc(N3CCOCC3)c3cnn(C4CCN(CC(=O)O)CC4)c3n2)cc1 [Compound 798] : Condition met
O=C(NCC1CC1)Nc1ccc(-c2nc(N3CCOCC3)c3cnn(C4CCN(Cc5ccccc5)CC4)c3n2)cc1 [Example 262] : Condition met
CONC(=O)Nc1ccc(-c2nc(N3CCOCC3)c3cnn(C4CCN(C(=O)c5cccnc5)CC4)c3n2)cc1 [Example 308] : Condition not met

Consider the additional compound presented here.
Is pIC50 at least 6? Consider CCNC(=O)Nc1ccc(-c2nc(N3CCOCC3)c3cnn(C4CCN(Cc5cccnc5)CC4)c3n2)cc1 [Example 318] Condition met
